assay: Single-dose pharmacokinetic study (intravenous and intragastric) with HPLC-UV plasma assay, non-compartmental analysis; assay type: in vivo, Sprague-Dawley rats; conditions: male, Sprague-Dawley, plasma; rat, intravenous, 50 mg/kg, n = 8
MEASUREMENT_TYPE: clearance (mL/min/kg)

INSERT INTO assay_data (molecule, units_text, test_result) VALUES
  ('COc1cc(C(C)=O)ccc1O [Apocynin, 4-hydroxy-3-methoxyacetophenone]', 'mL/min/kg', 120);

---

test: Single-dose pharmacokinetic study (intravenous and intragastric) with HPLC-UV plasma assay, non-compartmental analysis; type: in vivo, Sprague-Dawley rats; details: male, Sprague-Dawley, plasma; rat, intravenous, 40 mg/kg, n = 6; read-out: MRT0–t (converted)
MEASUREMENT_TYPE: MRT last (h)

INSERT INTO measurements (compound, measurement_type, test_result) VALUES
  ('COc1cc(C(C)=O)cc(/C=[N+](\[O-])C(C)(C)C)c1O [AN-1]', 'MRT last', 3.22);

---

test: Single-dose pharmacokinetic study (intravenous and intragastric) with HPLC-UV plasma assay, non-compartmental analysis; assay type: in vivo, Sprague-Dawley rats; settings: male, Sprague-Dawley, plasma; rat, intravenous, 20 mg/kg, n = 8; read-out: T1/2
MEASUREMENT_TYPE: half-life (min)

INSERT INTO assay_data (given_smiles, measurement_type, units_text, test_result) VALUES
  ('COc1cc(C(C)=O)cc(/C=[N+](\[O-])C(C)(C)C)c1O', 'half-life', 'min', 172);

---

test: Single-dose pharmacokinetic study (intravenous and intragastric) with HPLC-UV plasma assay, non-compartmental analysis; assay type: in vivo, Sprague-Dawley rats; details: male, Sprague-Dawley, plasma, po; rat, intragastric, 40 mg/kg, n = 6
MEASUREMENT_TYPE: Cmax (µM)

INSERT INTO results (given_smiles, measurement_type, test_result) VALUES
  ('COc1cc(C(C)=O)cc(/C=[N+](\[O-])C(C)(C)C)c1O', 'Cmax', 80);

---

assay: Single-dose pharmacokinetic study (intravenous and intragastric) with HPLC-UV plasma assay, non-compartmental analysis; type: in vivo, Sprague-Dawley rats; conditions: male, Sprague-Dawley, plasma; rat, intravenous, 40 mg/kg, n = 6; read-out: T1/2
MEASUREMENT_TYPE: half-life (h)

INSERT INTO measurements (given_smiles, units_text, test_result) VALUES
  ('COc1cc(C(C)=O)cc(/C=[N+](\[O-])C(C)(C)C)c1O', 'h', 2.71);

---

Experiment: Single-dose pharmacokinetic study (intravenous and intragastric) with HPLC-UV plasma assay, non-compartmental analysis
Format: in vivo, Sprague-Dawley rats
Conditions: male, Sprague-Dawley, plasma; rat, intravenous, 80 mg/kg, n = 8; read-out: MRT0–t (converted)
Description: Male Sprague-Dawley rats, weighing 210–290 g, were fasted for 12 h but with free access to water before dosing. The rats were randomly divided into groups of intravenous AN-1, intravenous apocynin, intragastric AN-1 and intragastric apocynin. […] The profiles of analyte concentrations in rat plasma versus time were analyzed to calculate pharmacokinetic parameters by a non-compartmental model using DAS software (version 3.0.1, Chinese Mathematical Pharmacology Society).
MEASUREMENT_TYPE: MRT last

INSERT INTO assay_data (given_smiles, test_result) VALUES
  ('COc1cc(C(C)=O)cc(/C=[N+](\[O-])C(C)(C)C)c1O', '3.42 h');

---

experiment: Single-dose pharmacokinetic study (intravenous and intragastric) with HPLC-UV plasma assay, non-compartmental analysis; type: in vivo, Sprague-Dawley rats; settings: male, Sprague-Dawley, plasma; rat, intravenous, 20 mg/kg, n = 8; read-out: MRT0–t (converted)
MEASUREMENT_TYPE: MRT last (h)

INSERT INTO results (compound, units_text, test_result) VALUES
  ('COc1cc(C(C)=O)cc(/C=[N+](\[O-])C(C)(C)C)c1O [AN-1]', 'h', 2.94);
